The reported measurements were obtained from ChEMBL document CHEMBL1140268.

# testedOn: UniProtKB P09668
# Sequence (P09668 116-335 limits assumed, other chains not shown): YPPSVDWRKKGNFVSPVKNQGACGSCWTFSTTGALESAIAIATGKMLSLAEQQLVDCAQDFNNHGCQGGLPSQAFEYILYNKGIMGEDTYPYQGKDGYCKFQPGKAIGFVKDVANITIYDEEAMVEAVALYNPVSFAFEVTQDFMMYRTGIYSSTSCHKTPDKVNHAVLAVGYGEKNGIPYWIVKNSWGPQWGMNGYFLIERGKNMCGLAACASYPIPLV
# testName: Inhibitory concentration against human cathepsin H using 50 uM L-Arg-beta-naphthalamide
measuredProperty: IC50 (µM)
// note: answer is a bare numeric in µM

Query: So what's the measured IC50 for this one? `C[C@@H](CC1CCCCC1)OC(=O)N[C@H]1CCN(C#N)C1`
Result: 8.3

====

# testedOn: Cathepsin K (Homo sapiens, UniProt P43235)
# Sequence (P43235 whole entry): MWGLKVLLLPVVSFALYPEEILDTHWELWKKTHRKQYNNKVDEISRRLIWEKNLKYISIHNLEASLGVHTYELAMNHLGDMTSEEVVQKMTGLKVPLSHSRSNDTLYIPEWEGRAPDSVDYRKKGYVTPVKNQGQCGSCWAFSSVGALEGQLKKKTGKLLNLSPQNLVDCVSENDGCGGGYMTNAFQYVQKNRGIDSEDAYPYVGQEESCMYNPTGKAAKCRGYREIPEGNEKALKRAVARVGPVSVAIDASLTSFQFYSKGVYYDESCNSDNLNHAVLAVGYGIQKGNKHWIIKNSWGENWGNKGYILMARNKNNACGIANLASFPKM
measuredProperty: pIC50
Reminder that pIC50 is minus the log10 of a molar concentration.

CC[C@@H](CC1CCCCC1)OC(=O)N1CCC(NC#N)C1 (some centres undefined)    6.70
CC(C)(C)OC(=O)N1CCCN1C#N    6.42
N#CN1CCCC1    5.68
CC(C)(C)NC(=O)[C@H]1CCCN1C#N    5.09
C[C@@H](CC1CCCCC1)OC(=O)N[C@H]1CCN(C#N)C1    7.92
C[C@@H](CC1CCCCC1)OC(=O)C1CCN1C#N (some centres undefined)    10.32
C[C@@H](CC1CCCCC1)OC(=O)C1CCCN1C#N (some centres undefined)    8.74
CC(C)(C)OC(=O)[C@@H]1CCCN1C#N    7.22

Query: Report pIC50 for `CC(C)(C)OC(=O)N[C@@H]1CCN(C#N)C1` please.
Result: 6.70
